Numbers sourced from the supplement of paper PMC10065799.

# Tested System: MERTK (UniProt Q12866)
# Sequence (Q12866 whole entry, looked up): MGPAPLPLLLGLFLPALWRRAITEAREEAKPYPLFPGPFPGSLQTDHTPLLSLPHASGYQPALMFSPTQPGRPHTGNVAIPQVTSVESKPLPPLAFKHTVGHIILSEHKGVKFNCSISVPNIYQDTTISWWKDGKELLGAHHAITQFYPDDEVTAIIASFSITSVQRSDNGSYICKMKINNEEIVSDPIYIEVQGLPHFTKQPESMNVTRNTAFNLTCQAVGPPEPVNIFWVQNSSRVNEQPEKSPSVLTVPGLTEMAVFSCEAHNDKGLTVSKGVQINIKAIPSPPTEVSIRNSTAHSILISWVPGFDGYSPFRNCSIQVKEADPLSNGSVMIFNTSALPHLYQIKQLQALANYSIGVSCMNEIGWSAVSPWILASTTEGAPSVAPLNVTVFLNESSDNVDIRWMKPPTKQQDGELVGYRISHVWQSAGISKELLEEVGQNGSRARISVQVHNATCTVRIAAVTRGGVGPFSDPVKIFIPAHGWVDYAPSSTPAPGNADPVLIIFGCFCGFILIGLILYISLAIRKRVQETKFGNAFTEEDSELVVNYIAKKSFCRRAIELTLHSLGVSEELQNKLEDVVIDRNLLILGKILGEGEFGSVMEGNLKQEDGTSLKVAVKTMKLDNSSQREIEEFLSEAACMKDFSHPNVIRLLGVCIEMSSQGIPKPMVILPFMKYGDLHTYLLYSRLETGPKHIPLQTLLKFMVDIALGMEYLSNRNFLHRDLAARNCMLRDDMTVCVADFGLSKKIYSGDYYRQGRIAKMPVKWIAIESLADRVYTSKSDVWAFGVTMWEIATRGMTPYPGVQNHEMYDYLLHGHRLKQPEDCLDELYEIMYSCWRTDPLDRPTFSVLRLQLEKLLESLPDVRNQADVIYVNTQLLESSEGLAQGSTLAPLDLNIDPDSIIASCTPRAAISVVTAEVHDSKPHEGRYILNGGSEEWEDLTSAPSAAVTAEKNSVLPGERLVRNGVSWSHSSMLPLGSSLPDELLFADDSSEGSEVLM
# Test Description: phosphorylation enrichment, bacterial display (enrichment ratio); higher = better substrate or ligand; peptides without Tyr show the background;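 note: 11-residue human phosphosite peptides and single-mutation variants displayed on the E. coli surface, counted by deep sequencing, each peptide's frequency after selection divided by its frequency in the unselected input library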;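 note: frequency after pTyr selection over input frequency; kinase dosed for 20-30% of maximal phosphorylation in three min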
This section presents sequences with their documented phosphorylation enrichment values.
Please state the value as a number alone, without comment.

# count of solved cases: 10
FEGAIYRKDIG [GART_Y417_V421I]	0.451
TFGNLYGSRKQ [YIPF7_Y59_A54T_YF]	0.641
IAINKYEVSLI [MYO7A_Y2136_G2137E]	0.371
DENWFYTRAAF [RPS19_Y54_S59F]	0.55
LIHLHYIRKDF [BBS4_Y43_YF]	0.471
IRDLKYTIENP [SND1_Y178]	0.407
KKCTTYIDCDL [ASPA_Y64_R63T]	0.391
ENAGFYFRISA	0.36
IRRSSYEDSSL [HNF4A_Y144_T139I]	0.485
NTGNFYDLFGG [PTPN11_Y63_D61N_YF]	7.84

Field: next sequence
Sample QKFMAYLSQGG [HLCS_Y236] , system: MERTK (UniProt Q12866). Its phosphorylation enrichment is 0.517

###

This section presents sequences with their documented phosphorylation enrichment values.
# Tested System: Jak2 (UniProt O60674)
# Sequence (O60674 whole entry, looked up): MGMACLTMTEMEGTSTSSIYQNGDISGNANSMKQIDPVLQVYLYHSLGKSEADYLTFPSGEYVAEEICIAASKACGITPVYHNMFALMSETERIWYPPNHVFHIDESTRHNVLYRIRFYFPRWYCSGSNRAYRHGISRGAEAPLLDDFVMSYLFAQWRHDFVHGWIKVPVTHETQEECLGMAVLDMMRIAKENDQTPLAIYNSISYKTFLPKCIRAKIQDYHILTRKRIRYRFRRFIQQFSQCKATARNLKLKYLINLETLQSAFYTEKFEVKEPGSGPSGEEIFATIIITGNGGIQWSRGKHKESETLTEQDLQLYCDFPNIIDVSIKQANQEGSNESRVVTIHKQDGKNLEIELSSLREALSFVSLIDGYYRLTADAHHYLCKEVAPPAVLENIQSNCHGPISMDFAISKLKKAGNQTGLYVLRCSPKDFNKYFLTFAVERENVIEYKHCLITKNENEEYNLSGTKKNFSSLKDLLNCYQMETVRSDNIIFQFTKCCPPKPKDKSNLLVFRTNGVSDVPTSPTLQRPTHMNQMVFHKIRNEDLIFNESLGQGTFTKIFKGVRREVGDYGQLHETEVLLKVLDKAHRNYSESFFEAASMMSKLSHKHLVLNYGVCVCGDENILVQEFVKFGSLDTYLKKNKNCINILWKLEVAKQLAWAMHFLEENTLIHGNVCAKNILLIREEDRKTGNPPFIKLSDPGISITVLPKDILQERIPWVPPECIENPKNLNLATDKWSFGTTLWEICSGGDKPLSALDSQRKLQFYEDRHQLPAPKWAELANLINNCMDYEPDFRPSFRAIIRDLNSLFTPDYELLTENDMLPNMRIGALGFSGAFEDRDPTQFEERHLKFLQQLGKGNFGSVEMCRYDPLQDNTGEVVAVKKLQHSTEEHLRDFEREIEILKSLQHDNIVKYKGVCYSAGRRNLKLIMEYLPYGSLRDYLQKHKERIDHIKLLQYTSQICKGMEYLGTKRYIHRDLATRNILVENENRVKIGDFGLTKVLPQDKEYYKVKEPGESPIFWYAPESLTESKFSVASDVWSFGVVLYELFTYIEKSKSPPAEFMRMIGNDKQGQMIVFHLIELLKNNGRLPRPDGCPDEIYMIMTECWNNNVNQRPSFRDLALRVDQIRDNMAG
# Test Description: phosphorylation enrichment, bacterial display (enrichment ratio); higher = better substrate or ligand; peptides without Tyr show the background
Please state the value as a number alone, without comment.

# count of solved cases: 3
HLWRIYFDITD [MMP27_Y307_YF]	1.52
PEADKYHLTYA [FGG_Y300_R301H]	0.908
FGSSSYGGAGG [RPA2_Y14_YF]	0.544

// recorded phosphorylation enrichment for DGSALYTGSAL [COL6A3_Y524] : 0.591

// recorded phosphorylation enrichment for NGTVSYAIVAG [CDH23_Y1672_T1671S] : 0.703

// recorded phosphorylation enrichment for AVISVYDLVVV [PSEN1_Y256_A260V] : 1.29

###

# Tested System: Jak2 (UniProt O60674)
# Test Description: phosphorylation enrichment, bacterial display (enrichment ratio); higher = better substrate or ligand; peptides without Tyr show the background
Parameter threshold = 0.7. Response is True when phosphorylation enrichment meets or exceeds it, else False.

DENWFYTRAAF [RPS19_Y54_S59F]	True
KELALYDENWF [RPS19_Y48_P47L]	True
GHLYACDWISI [BEST1_Y227_Y227C]	True
VMTSKYRGGGG [HBA1_Y141_L137M]	False

Exercise: Entry TMETKYDNISR [SETDB2_Y477_V473M] : is its phosphorylation enrichment no less than 0.7?
Key: True

Exercise: Entry TFHNTYHSHMR [IL1RAPL1_Y615_Q618H] : is its phosphorylation enrichment no less than 0.7?
Key: True

Exercise: Entry YIILIYAMKKK [SLCO1B1_Y645] : is its phosphorylation enrichment no less than 0.7?
Key: False

Exercise: Entry IVEELYAIPPD [PEAK1_Y797_S792I] : is its phosphorylation enrichment no less than 0.7?
Key: True

Exercise: Entry KAIMTYVSSFY [ACTN4_Y260] : is its phosphorylation enrichment no less than 0.7?
Key: True

Exercise: Entry HPFHVYSQPGM [BAG3_Y114_P115S] : is its phosphorylation enrichment no less than 0.7?
Key: True

Exercise: Entry SENFTYIWWLN [PSG4_Y271_K267E_YF] : is its phosphorylation enrichment no less than 0.7?
Key: True

Exercise: Entry SVTCTYSPALN [TP53_Y126] : is its phosphorylation enrichment no less than 0.7?
Key: True

Exercise: Entry KDLPNYNWNSF [KISS1_Y112] : is its phosphorylation enrichment no less than 0.7?
Key: True

Exercise: Entry ACLSLYGGFVE [MVD_Y164_R161L] : is its phosphorylation enrichment no less than 0.7?
Key: True

Exercise: Entry PEVCDYGLGGG [GSTO1_Y239_A236V] : is its phosphorylation enrichment no less than 0.7?
Key: True

Exercise: Entry HIAKVYRRDNP [HARS1_Y156] : is its phosphorylation enrichment no less than 0.7?
Key: False

Exercise: Entry RILENYGADID [DNAH5_Y596_L591R] : is its phosphorylation enrichment no less than 0.7?
Key: True

Exercise: Entry LLASGYDSPIN [ABLIM1_Y638_R637G] : is its phosphorylation enrichment no less than 0.7?
Key: True

Exercise: Entry MSPPGYKLVNG [GJA1_Y286_T290N] : is its phosphorylation enrichment no less than 0.7?
Key: False

Exercise: Entry GVYSRYFTTYD [CLCA1_Y661] : is its phosphorylation enrichment no less than 0.7?
Key: True

Exercise: Entry KRAIGHYSATS [FAM120A_Y327_Y327H] : is its phosphorylation enrichment no less than 0.7?
Key: False

Exercise: Entry REVPVYTYSEP [FAM120B_Y368_D370Y] : is its phosphorylation enrichment no less than 0.7?
Key: True

Exercise: Entry LNEAVYTKMMT [G6PD_Y401_P396L] : is its phosphorylation enrichment no less than 0.7?
Key: True

###

# Tested System: EPHB2 (UniProt P29323)
# Sequence (P29323 whole entry, looked up): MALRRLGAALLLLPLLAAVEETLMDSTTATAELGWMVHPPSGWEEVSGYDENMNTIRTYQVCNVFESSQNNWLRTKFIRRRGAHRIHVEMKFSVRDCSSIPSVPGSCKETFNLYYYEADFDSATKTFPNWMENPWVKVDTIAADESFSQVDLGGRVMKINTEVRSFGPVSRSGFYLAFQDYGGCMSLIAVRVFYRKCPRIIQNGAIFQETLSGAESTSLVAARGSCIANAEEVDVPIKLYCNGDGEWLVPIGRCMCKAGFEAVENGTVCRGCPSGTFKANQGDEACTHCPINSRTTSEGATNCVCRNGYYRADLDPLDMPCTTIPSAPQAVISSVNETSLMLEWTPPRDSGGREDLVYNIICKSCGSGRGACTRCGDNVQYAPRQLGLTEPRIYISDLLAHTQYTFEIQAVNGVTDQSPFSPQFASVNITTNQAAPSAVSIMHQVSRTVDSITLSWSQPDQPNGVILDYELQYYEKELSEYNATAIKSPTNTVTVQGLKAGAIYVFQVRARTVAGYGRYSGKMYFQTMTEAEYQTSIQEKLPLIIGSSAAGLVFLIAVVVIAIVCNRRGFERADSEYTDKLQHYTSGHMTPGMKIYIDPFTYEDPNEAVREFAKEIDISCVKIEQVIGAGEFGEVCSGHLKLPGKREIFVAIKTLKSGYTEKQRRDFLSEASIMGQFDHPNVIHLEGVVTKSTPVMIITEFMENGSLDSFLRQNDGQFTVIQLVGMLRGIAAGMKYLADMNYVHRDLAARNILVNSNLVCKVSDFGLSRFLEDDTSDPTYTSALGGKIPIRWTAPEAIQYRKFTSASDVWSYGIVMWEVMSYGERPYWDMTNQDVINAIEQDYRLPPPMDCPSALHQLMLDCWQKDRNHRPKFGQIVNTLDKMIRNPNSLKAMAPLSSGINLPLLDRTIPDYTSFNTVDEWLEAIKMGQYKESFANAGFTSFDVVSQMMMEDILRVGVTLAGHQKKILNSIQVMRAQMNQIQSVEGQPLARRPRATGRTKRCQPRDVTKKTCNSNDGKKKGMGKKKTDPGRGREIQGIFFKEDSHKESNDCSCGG
# Test Description: phosphorylation enrichment, bacterial display (enrichment ratio); higher = better substrate or ligand; peptides without Tyr show the background
Measured Endpoint: phosphorylation enrichment

// recorded phosphorylation enrichment for ACLSLYGGFVE [MVD_Y164_R161L] : 1.13

// recorded phosphorylation enrichment for TVETKYDNISR [SETDB2_Y477] : 0.379

// recorded phosphorylation enrichment for NIRKKYYRAIL [CHD7_Y1217_Q1214R] : 0.311

// recorded phosphorylation enrichment for GREEFYSTHPH [LRRK2_Y1402] : 0.482

// recorded phosphorylation enrichment for KLIETCFSKNY [PLP1_Y50_Y50C] : 0.555

// recorded phosphorylation enrichment for FRSSLYLLMET [MYO5C_Y633] : 0.591

// recorded phosphorylation enrichment for SWSTSYSGYRC [NKAPL_Y91_Y96C] : 0.547

// recorded phosphorylation enrichment for KELALYDENWF [RPS19_Y48_P47L] : 11.5

// recorded phosphorylation enrichment for LIDSSYLTPTA [GREB1L_Y1063_R1066P] : 0.498

// recorded phosphorylation enrichment for VQDPAYLRDIN [OPRK1_Y369_D374N] : 0.485

// recorded phosphorylation enrichment for HYVYYYSYLLK [PTEN_Y178_R173H] : 1.37

// recorded phosphorylation enrichment for KNSFKYFMSDD [ATRX_Y203_C200S_YF] : 0.55

// recorded phosphorylation enrichment for KDFTIHNPNLL [VANGL1_Y290_Y290H] : 0.366

// recorded phosphorylation enrichment for HEEKVYLSRGD [CRACR2A_Y141] : 0.526

###

# Tested System: Hck (UniProt P08631)
# Sequence (P08631 whole entry, looked up): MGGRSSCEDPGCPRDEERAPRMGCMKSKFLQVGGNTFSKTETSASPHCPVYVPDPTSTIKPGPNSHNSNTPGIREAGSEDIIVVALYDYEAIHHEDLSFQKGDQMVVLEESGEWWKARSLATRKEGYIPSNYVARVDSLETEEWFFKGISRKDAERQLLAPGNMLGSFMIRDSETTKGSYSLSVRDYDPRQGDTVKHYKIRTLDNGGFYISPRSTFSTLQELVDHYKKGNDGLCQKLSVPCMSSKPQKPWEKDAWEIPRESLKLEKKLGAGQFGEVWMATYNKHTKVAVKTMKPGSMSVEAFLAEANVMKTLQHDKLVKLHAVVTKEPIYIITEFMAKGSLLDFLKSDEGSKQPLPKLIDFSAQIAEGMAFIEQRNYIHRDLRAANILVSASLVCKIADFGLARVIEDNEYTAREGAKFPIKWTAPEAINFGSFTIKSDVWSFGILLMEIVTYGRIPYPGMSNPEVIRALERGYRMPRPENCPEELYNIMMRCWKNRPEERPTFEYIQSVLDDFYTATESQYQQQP
# Test Description: phosphorylation enrichment, bacterial display (enrichment ratio); higher = better substrate or ligand; peptides without Tyr show the background
Measured Endpoint: phosphorylation enrichment
Please state the value as a number alone, without comment.

// recorded phosphorylation enrichment for RGEKQYLATPL [ALOX12_Y295_A298T] : 0.484

// recorded phosphorylation enrichment for DENCFYTRAAS [RPS19_Y54_W52C] : 0.576

// recorded phosphorylation enrichment for CTTIHYNYMRN [TP53_Y234_C238R] : 0.546

// recorded phosphorylation enrichment for VRFMAYTDEIF [F8_Y450_T454I] : 0.436

// recorded phosphorylation enrichment for EAVKNYTDKRG [PBRM1_Y672] : 0.38

// recorded phosphorylation enrichment for GISDEYHMIRH [GCDH_Y398_V400M] : 0.891

// recorded phosphorylation enrichment for VEDPEYAVTQP [STOML2_Y124_L129P] : 0.608

###

This section presents sequences with their documented phosphorylation enrichment values.
# Tested System: FGFR3 (UniProt P22607)
# Sequence (P22607 whole entry, looked up): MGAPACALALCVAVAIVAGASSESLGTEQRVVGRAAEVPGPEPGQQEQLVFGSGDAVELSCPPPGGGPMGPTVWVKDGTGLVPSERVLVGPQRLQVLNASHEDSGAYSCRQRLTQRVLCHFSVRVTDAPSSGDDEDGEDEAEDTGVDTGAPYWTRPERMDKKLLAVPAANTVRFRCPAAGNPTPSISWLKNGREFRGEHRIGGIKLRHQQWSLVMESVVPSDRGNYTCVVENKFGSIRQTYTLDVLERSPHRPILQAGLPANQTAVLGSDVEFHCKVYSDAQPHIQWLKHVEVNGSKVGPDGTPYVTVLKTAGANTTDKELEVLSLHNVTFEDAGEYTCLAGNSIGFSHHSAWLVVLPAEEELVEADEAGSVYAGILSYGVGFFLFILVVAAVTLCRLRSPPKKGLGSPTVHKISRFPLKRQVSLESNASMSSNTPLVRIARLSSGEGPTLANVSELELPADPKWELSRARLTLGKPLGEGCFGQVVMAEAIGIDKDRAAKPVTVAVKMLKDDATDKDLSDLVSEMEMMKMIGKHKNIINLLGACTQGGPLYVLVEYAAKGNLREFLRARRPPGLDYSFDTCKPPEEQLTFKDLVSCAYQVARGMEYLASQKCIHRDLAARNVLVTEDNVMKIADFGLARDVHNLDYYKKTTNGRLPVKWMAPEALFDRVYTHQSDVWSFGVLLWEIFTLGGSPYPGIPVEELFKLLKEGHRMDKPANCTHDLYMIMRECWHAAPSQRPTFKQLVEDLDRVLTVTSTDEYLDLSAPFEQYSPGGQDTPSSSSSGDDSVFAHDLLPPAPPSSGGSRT
# Test Description: phosphorylation enrichment, bacterial display (enrichment ratio); higher = better substrate or ligand; peptides without Tyr show the background

# count of solved cases: 5
SETDDYAEIIV [PTK2_Y397_D402V]	1.2
NQLNDYIFSFD [RARS1_Y516_R512Q]	0.807
ICANKYMVESC [RPL10_Y75_K78E]	0.659
SHGQDYLAGNK [GSTA2_Y147_V149A]	0.49
TQPSPYAVYRF [RPGRIP1_Y823]	0.795

// recorded phosphorylation enrichment for VIKDKYPKAHY [APTX_Y209_R213H] : 0.505

// recorded phosphorylation enrichment for LNFNEYFRDLN [HPRT1_Y198_D194N_YF] : 0.803

###

# Test system: Fer (mouse)
# Test Description: phosphorylation enrichment, bacterial display (enrichment ratio); higher = better substrate or ligand; peptides without Tyr show the background
This section presents sequences with their documented phosphorylation enrichment values.
Please state the value as a number alone, without comment.

# count of solved cases: 8
GVYSRYFTTYD [CLCA1_Y661]	0.573
DVFLKHLNFAT [PDE6B_Y212_Y212H]	0.414
EAAFVYVISSA [WNT4_Y113_A114V]	0.561
RMLREYQELMS [KRT74_Y425]	0.357
PQGVRYIFTID [DCX_Y103_YF]	0.826
ASKEPYFVHCI [MYO1D_Y585_R588H_YF]	0.56
RQSTLYSFFPK [MSH6_Y8]	4.37
DTKDDYSALSV [IL17RB_Y457_N458S]	0.642

// recorded phosphorylation enrichment for TEYIQYVRRKN [MAX_Y73_M74V] : 0.454

// recorded phosphorylation enrichment for IRDLKYTIENP [SND1_Y178] : 0.541

// recorded phosphorylation enrichment for PKGWNYELPAT [PROM1_Y34_A31G] : 0.433

// recorded phosphorylation enrichment for QCTSHYPEHVC [SART3_Y541_D540H] : 0.393

// recorded phosphorylation enrichment for TGILLHGLASR [QARS1_Y57_Y57H] : 0.218

// recorded phosphorylation enrichment for SHNKFYMLVAR [MFSD8_Y134_YF] : 0.607
